# target of assay: IRAK4 (Homo sapiens, UniProt Q9NWZ3)
# Construct: endogenous in cells; host or cells: OCI-LY10
# Sequence (Q9NWZ3 1-460): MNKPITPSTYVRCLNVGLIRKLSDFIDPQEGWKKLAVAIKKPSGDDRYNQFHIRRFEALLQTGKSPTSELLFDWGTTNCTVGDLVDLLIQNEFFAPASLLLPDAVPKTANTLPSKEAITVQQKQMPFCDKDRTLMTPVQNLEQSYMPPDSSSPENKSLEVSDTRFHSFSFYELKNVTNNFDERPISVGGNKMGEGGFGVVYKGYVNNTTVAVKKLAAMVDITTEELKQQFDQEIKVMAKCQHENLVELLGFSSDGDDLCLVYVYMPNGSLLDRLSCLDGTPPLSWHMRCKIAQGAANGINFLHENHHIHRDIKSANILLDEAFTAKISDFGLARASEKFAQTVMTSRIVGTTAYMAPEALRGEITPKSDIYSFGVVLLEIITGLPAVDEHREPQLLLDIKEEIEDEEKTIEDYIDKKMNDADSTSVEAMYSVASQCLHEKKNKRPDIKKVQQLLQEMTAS
# method summary: IRAK4 MSD degradation in OCI-LY10
# Format: cell-based
# measurement context: OCI-LY10 cells, 24 hrs, Meso Scale Discovery
# Procedure: Degradation of IRAK4 in OCI-LY10 was quantitatively measured using Meso Scale Discovery technology. […] Compounds were then added to the assay plates with a final top concentration of 1 to 10 μM in a 1:3 dilution series with total of 8 doses. […] The assay plates were then incubated at room temperature for 1 hour, washed 3 times with 150 μL/well TBST buffer, and 150 μL/well MSD reading buffer (Meso Scale Discovery catalog number R92TC-2) was added. […]
measured property: DC50

Guide cases for DC50, answers given:
O=C1CCC(n2c(=O)oc3c([C@H]4CCN(C[C@H]5CC[C@H](n6cc7cc(NC(=O)c8cncc(C(F)(F)F)n8)ccc7n6)CC5)C[C@@H]4F)cccc32)C(=O)N1 (single isomer, unassigned) = > 200 nM
CN(C[C@H]1CC[C@H](c2nc3cc(C(C)(C)O)c(NC(=O)c4cncc(C(F)(F)F)n4)cc3s2)CC1)[C@@H]1CCN(c2cccc3c2n(C)c(=O)n3C2CCC(=O)NC2=O)C[C@H]1F (single isomer, unassigned) = < 10 nM
COc1cc2nn([C@H]3CC[C@H](CN4CC[C@@H](c5cccc6c5n(C)c(=O)n6C5CCC(=O)NC5=O)[C@H](F)C4)CC3)cc2cc1C(=O)Nc1cncc(C(F)(F)F)c1 (some centres unmarked) = < 10 nM
Cn1c(=O)n(C2CCC(=O)NC2=O)c2cccc([C@@H]3CCN(C[C@H]4CC[C@H](n5cc6cc(NC(=O)c7nc(C(F)(F)F)cs7)ccc6n5)CC4)C[C@H]3F)c21 (some centres unmarked) = < 10 nM

Please look at the following compound next.
State its DC50 on IRAK4 (Homo sapiens, UniProt Q9NWZ3): Cn1nc(N2CCC(=O)NC2=O)c2cccc(N3CCC4(CCN(C[C@H]5CC[C@H](n6cc7cc(NC(=O)c8cncc(C#N)c8)c(C(C)(C)O)cc7n6)CC5)CC4(F)F)CC3)c21
10 to 100 nM

---

# target of assay: IRAK4 (Homo sapiens)
# Construct: endogenous in cells; host or cells: OCI-LY10
# method summary: IRAK4 MSD degradation in OCI-LY10
# Type: cell-based
# measurement context: OCI-LY10 cells, 24 hrs, Meso Scale Discovery
measured property: DC50

Guide cases for DC50, answers given:
CN(C[C@H]1CC[C@H](n2cc(NC(=O)c3cnn4ccc(N5C[C@H]6C[C@@H]5CO6)nc34)c(C(F)F)n2)CC1)[C@@H]1CCN(c2cccc3c2n(C)c(=O)n3C2CCC(=O)NC2=O)C[C@@H]1F (single isomer, unassigned) = < 10 nM
Cn1c(=O)n(C2CCC(=O)NC2=O)c2cccc(N3CCN(C[C@H]4CC[C@H](n5cc6cc(NC(=O)c7cncc(C(F)(F)F)n7)ccc6n5)CC4)C[C@@H]3C(F)(F)F)c21 (single isomer, unassigned) = < 10 nM
COc1cc2nn([C@H]3CC[C@H](CN(C)[C@H]4CCN(c5cccc6c5n(C)c(=O)n6C5CCC(=O)NC5=O)C[C@H]4F)CC3)cc2cc1NC(=O)c1cccc(C(F)(F)F)n1 (some centres unmarked) = < 10 nM

Each compound below has a recorded value; state its DC50.
1. Cn1c(=O)n(C2CCC(=O)NC2=O)c2cccc([C@@H]3CCN(C[C@H]4CC[C@H](n5cc6cc(NC(=O)c7cncc(C(F)(F)F)n7)ncc6n5)CC4)CC3(F)F)c21 (single isomer, unassigned)
2. Cn1c(=O)n(C2CCC(=O)NC2=O)c2cccc([C@@H]3CCN(C[C@H]4C[C@H](n5cc6cc(NC(=O)c7cccc(C(F)(F)F)n7)c(C#N)cc6n5)C4)C[C@H]3F)c21 (some centres unmarked)

1. 10 to 100 nM
2. < 10 nM

---

# method summary: Rodent pharmacokinetics (rat PK)
# Format: in vivo
# measurement context: po, dosed intravenously or orally by gavage, plasma, read-out: F % (bioavailability)
measured property: bioavailability

Guide cases for bioavailability, answers given:
Cn1c(=O)n(C2CCC(=O)NC2=O)c2cccc([C@@H]3CCN(C[C@H]4CC[C@H](n5cc6cc(NC(=O)c7cncc(C(F)F)n7)ccc6n5)CC4)C[C@H]3F)c21 (stereo partly shown) = ≤ 5%
CN(C[C@H]1CC[C@H](c2nc3cc(C(C)(C)O)c(NC(=O)c4cncc(C(F)(F)F)c4)cc3s2)CC1)[C@H]1CCN(c2cccc3c2n(C)c(=O)n3C2CCC(=O)NC2=O)C[C@H]1F (single isomer, unassigned) = ≥ 5%
Cn1c(=O)n(C2CCC(=O)NC2=O)c2cccc(N3CC4(CCN(C[C@H]5CC[C@H](c6nc7cc(C(C)(C)O)c(NC(=O)c8cccc(C(F)(F)F)n8)cc7o6)CC5)CC4(F)F)C3)c21 (stereo partly shown) = ≥ 5%
Cn1c(=O)n(C2CCC(=O)NC2=O)c2cccc(N3CC[C@H](CN4CCN(C[C@H]5CC[C@H](n6cc(NC(=O)c7cnn8ccc(N9C[C@H]%10C[C@@H]9CO%10)nc78)c(C(F)F)n6)CC5)CC4)C3)c21 (stereo partly shown) = ≤ 5%
Cc1nn(C2CCC(=O)NC2=O)c2cccc(N3CCC4(CCN(C[C@H]5CC[C@H](n6cc7cc(NC(=O)c8cncc(C#N)c8)c(C(C)(C)O)cc7n6)CC5)CC4(F)F)CC3)c12 (stereo partly shown) = ≤ 5%
Cn1nc(C2CCC(=O)NC2=O)c2cccc([C@@H]3CCN(C[C@H]4CC[C@H](n5cc6cc(NC(=O)c7cncc(C#N)c7)c(C(C)(C)O)cc6n5)CC4)C[C@H]3F)c21 (single isomer, unassigned) = ≥ 5%

Each molecule below has a recorded value; state its bioavailability.
1. Cc1nn(C2CCC(=O)NC2=O)c2cccc([C@@H]3CCN(C[C@H]4CC[C@H](n5cc6cc(NC(=O)c7cncc(C(F)(F)F)n7)ccc6n5)CC4)CC3(F)F)c12 (single isomer, unassigned)
2. Cn1c(=O)n(C2CCC(=O)NC2=O)c2cccc([C@@H]3CCN(C[C@H]4CC[C@H](n5cc6cc(NC(=O)c7cncc(C(F)(F)F)n7)c(S(C)(=O)=O)cc6n5)CC4)C[C@H]3F)c21 (stereo partly shown)
3. Cn1c(=O)n(C2CCC(=O)NC2=O)c2cccc([C@@H]3CCN(C[C@H]4CC[C@H](n5cc6cc(NC(=O)c7cccc(C#N)c7)ccc6n5)CC4)C[C@H]3F)c21 (stereo partly shown)
4. COc1cc2nn([C@H]3CC[C@H](CN4CCC5(CCN(c6cccc7c6n(C)c(=O)n7C6CCC(=O)NC6=O)CC5)C(F)(F)C4)CC3)cc2cc1NC(=O)c1cncc(C#N)c1 (stereo partly shown)

≥ 5%
≤ 5%
≤ 5%
≤ 5%

---

# target of assay: IRAK4 (Homo sapiens, UniProt Q9NWZ3)
# Construct: endogenous in cells; host or cells: OCI-LY10
# method summary: IRAK4 MSD degradation in OCI-LY10
# Format: cell-based
# measurement context: OCI-LY10 cells, 24 hrs, Meso Scale Discovery
measured property: DC50

Guide cases for DC50, answers given:
CN(c1cccc(N2CCN(C[C@H]3CC[C@H](n4cc5cc(NC(=O)c6cccc(C(F)(F)F)n6)ncc5n4)CC3)CC2)c1)C1CCC(=O)NC1=O (some centres unmarked) = 0.1 to 0.2 µM
COc1cc2nn([C@H]3CC[C@H](CN4CC[C@@H](c5cccc6c5n(C)c(=O)n6C5CCC(=O)NC5=O)[C@H](F)C4)CC3)cc2cc1NC(=O)c1cncc(C#N)c1 (single isomer, unassigned) = < 0.01 µM
Cn1c(=O)n(C2CCC(=O)NC2=O)c2cccc([C@@H]3CCN(C[C@H]4CC[C@H](n5cc6cc(NC(=O)c7coc(C(F)(F)F)n7)ccc6n5)CC4)C[C@H]3F)c21 (some centres unmarked) = < 0.01 µM
Cn1c(=O)n(C2CCC(=O)NC2=O)c2cccc(N3CCC4(CCN(C[C@H]5CC[C@H](c6nc7cc(C(C)(C)O)c(NC(=O)c8cccc(C(F)(F)F)n8)cc7s6)CC5)CC4(F)F)CC3)c21 (some centres unmarked) = 0.01 to 0.1 µM

Please look at the following compound next.
May I ask what DC50 has been recorded for Cn1c(=O)n(C2CCC(=O)NC2=O)c2cccc([C@@H]3CCN(C[C@H]4CC[C@H](c5cn6cc(NC(=O)c7cccc(C(F)(F)F)c7)c(C(C)(C)O)cc6n5)CC4)C[C@H]3F)c21 (some centres unmarked) ?
< 0.01 µM
